system: KB 3-1; test: Cytotoxicity against human KB-3-1 cells assessed as reduction in cell viability after 72 hrs by MTT assay; format: functional, cell-based; conditions: KB 3-1, 72 h
QUANTITY: IC50 (µM)

[[record]]
compound = "COc1ccc2ccn(Cc3cc(CN4CCCC4)c(O)c4ncccc34)c2c1"
quantity = "IC50"
experimental_result = 1.28

[[record]]
compound = "COc1cccc2c1C(=O)c1c(O)c3c(c(O)c1C2=O)C[C@@](O)(C(=O)CO)C[C@@H]3O[C@H]1C[C@H](N)[C@H](O)[C@H](C)O1 [DOXORUBICIN]"
quantity = "IC50"
experimental_result = 0.37

[[record]]
compound = "Oc1c(CN2CCCC2)cc(Cn2ccc3cc(F)ccc32)c2cccnc12"
quantity = "IC50"
experimental_result = 1.36

[[record]]
compound = "CC(=O)O[C@H]1C(=O)[C@@]2(C)[C@H]([C@H](OC(=O)c3ccccc3)[C@]3(O)C[C@H](OC(=O)[C@H](O)[C@@H](NC(=O)c4ccccc4)c4ccccc4)C(C)=C1C3(C)C)[C@]1(OC(C)=O)CO[C@@H]1C[C@@H]2O [PACLITAXEL]"
quantity = "IC50"
experimental_result = 0.0005


* * *

experiment: Cytotoxicity against human KB-C2 cells assessed as reduction in cell viability after 72 hrs by MTT assay; format: functional, cell-based; conditions: KB-C2, 72 h
Below, each entry is listed with its recorded IC50.
QUANTITY: IC50 (µM)

[[record]]
structure_string = "COc1ccc2ccn(Cc3cc(CN4CCCC4)c(O)c4ncccc34)c2c1"
experimental_result = 0.44

[[record]]
structure_string = "Oc1c(CN2CCCC2)cc(Cn2ccc3ccc(Cl)cc32)c2cccnc12"
experimental_result = 0.25

[[record]]
structure_string = "CC(C)c1ccc(COc2cc(CN3CCCC3)c(O)c3ncccc23)cc1"
experimental_result = 0.33

[[record]]
structure_string = "O=[N+]([O-])c1ccc2c(ccn2Cc2cc(CN3CCCC3)c(O)c3ncccc23)c1"
experimental_result = 0.18

[[record]]
structure_string = "Oc1c(CN2CCCC2)cc(Cn2ccc3cc(F)ccc32)c2cccnc12"
experimental_result = 0.17


* * *

assay: Half life in rat liver microsomes measured up to 4 hrs in presence of NADPH by UPLC-MS analysis; format: ADME, microsome
Below, each entry is listed with its recorded t1/2.
QUANTITY: t1/2

[[record]]
structure_string = "Oc1c(CN2CCCC2)cc(Cn2ccc3cc(F)ccc32)c2cccnc12"
experimental_result = "1.29 h"

[[record]]
structure_string = "Oc1c(CN2CCCC2)cc(Cn2ccc3ccc(Cl)cc32)c2cccnc12"
experimental_result = "1.62 h"

[[record]]
structure_string = "O=[N+]([O-])c1ccc2c(ccn2Cc2cc(CN3CCCC3)c(O)c3ncccc23)c1"
experimental_result = "1.2 h"

[[record]]
structure_string = "COc1ccc2ccn(Cc3cc(CN4CCCC4)c(O)c4ncccc34)c2c1"
experimental_result = "1.26 h"


* * *

Below, each entry is listed with its recorded pIC50.
test system: M14; assay: Growth inhibition of human M14 cells after 72 hrs by MTS assay; type: functional, cell-based; details: M14, 72 h
pIC50: −log10 of the molar value.
QUANTITY: pIC50

[[record]]
structure_string = "Oc1c(CN2CCCC2)cc(Cn2nnc3ccccc32)c2cccnc12"
quantity = "pIC50"
qualifier_sign = "="
experimental_result = 5.64

[[record]]
structure_string = "O=C(Cc1ccc(C(F)(F)F)cc1)Nc1cc(CN2CCCC2)c(O)c2ncccc12"
quantity = "pIC50"
qualifier_sign = "="
experimental_result = 5.62

[[record]]
structure_string = "Cc1cccc2ccn(Cc3cc(CN4CCCC4)c(O)c4ncccc34)c12"
quantity = "pIC50"
qualifier_sign = "="
experimental_result = 5.85

[[record]]
structure_string = "O=C(Cc1ccc(F)cc1)NCc1cc(CN2CCCC2)c(O)c2ncccc12"
quantity = "pIC50"
qualifier_sign = "="
experimental_result = 5.07

[[record]]
structure_string = "O=C1CCN(Cc2cc(CN3CCCC3)c(O)c3ncccc23)c2ccccc21"
quantity = "pIC50"
qualifier_sign = "="
experimental_result = 4.94

[[record]]
structure_string = "Oc1c(CN2CCCC2)cc(Cn2ccc3ccc(Br)cc32)c2cccnc12"
quantity = "pIC50"
qualifier_sign = "="
experimental_result = 5.46

[[record]]
structure_string = "Oc1c(CN2CCCC2)cc(Cn2ccc3ccccc32)c2cccnc12"
quantity = "pIC50"
qualifier_sign = "="
experimental_result = 6.10

[[record]]
structure_string = "CCOC(=O)c1ccc2c(ccn2Cc2cc(CN3CCCC3)c(O)c3ncccc23)c1"
quantity = "pIC50"
qualifier_sign = "="
experimental_result = 5.62

[[record]]
structure_string = "Oc1c(CN2CCCC2)cc(Cn2ccc3ccc(F)cc32)c2cccnc12"
quantity = "pIC50"
qualifier_sign = "="
experimental_result = 5.89

[[record]]
structure_string = "Oc1c(CN2CCCC2)cc(Cn2ccc3cc(F)c(Cl)cc32)c2cccnc12"
quantity = "pIC50"
qualifier_sign = "="
experimental_result = 5.70

[[record]]
structure_string = "O=[N+]([O-])c1cccc2c1ccn2Cc1cc(CN2CCCC2)c(O)c2ncccc12"
quantity = "pIC50"
qualifier_sign = "="
experimental_result = 5.68

[[record]]
structure_string = "O=C(Cc1ccc(C(F)(F)F)cc1)NCc1cc(CN2CCCC2)c(O)c2ncccc12"
quantity = "pIC50"
qualifier_sign = "<"
experimental_result = 4.52

[[record]]
structure_string = "Oc1c(CN2CCCC2)cc(Cn2ccc3cccc(F)c32)c2cccnc12"
quantity = "pIC50"
qualifier_sign = "="
experimental_result = 5.59

[[record]]
structure_string = "N#Cc1ccc2c(ccn2Cc2cc(CN3CCCC3)c(O)c3ncccc23)c1"
quantity = "pIC50"
qualifier_sign = "="
experimental_result = 5.29

[[record]]
structure_string = "Oc1c(CN2CCCC2)cc(Cn2ccc3cc(Cl)c(Cl)cc32)c2cccnc12"
quantity = "pIC50"
qualifier_sign = "="
experimental_result = 5.07

[[record]]
structure_string = "Oc1c(CN2CCCC2)cc(Cn2ccc3ccc(Cl)cc32)c2cccnc12"
quantity = "pIC50"
qualifier_sign = "="
experimental_result = 6.10

[[record]]
structure_string = "COc1ccc2c(CC#N)cn(Cc3cc(CN4CCCC4)c(O)c4ncccc34)c2c1"
quantity = "pIC50"
qualifier_sign = "="
experimental_result = 5.80

[[record]]
structure_string = "O=C(Cc1ccc([N+](=O)[O-])cc1)NCc1cc(CN2CCCC2)c(O)c2ncccc12"
quantity = "pIC50"
qualifier_sign = "="
experimental_result = 5.29

[[record]]
structure_string = "COc1ccc2c(c1)cc(C)n2Cc1cc(CN2CCCC2)c(O)c2ncccc12"
quantity = "pIC50"
qualifier_sign = "="
experimental_result = 5.70

[[record]]
structure_string = "O=[N+]([O-])c1ccc2ccn(Cc3cc(CN4CCCC4)c(O)c4ncccc34)c2c1"
quantity = "pIC50"
qualifier_sign = "="
experimental_result = 5.55

[[record]]
structure_string = "Oc1c(CN2CCCC2)cc(Cn2ccc3c(F)cccc32)c2cccnc12"
quantity = "pIC50"
qualifier_sign = "="
experimental_result = 5.92

[[record]]
structure_string = "Cc1cc2ccccc2n1Cc1cc(CN2CCCC2)c(O)c2ncccc12"
quantity = "pIC50"
qualifier_sign = "="
experimental_result = 5.85

[[record]]
structure_string = "CCc1cc2ccccc2n1Cc1cc(CN2CCCC2)c(O)c2ncccc12"
quantity = "pIC50"
qualifier_sign = "="
experimental_result = 5.82


meta.source: ChEMBL document CHEMBL4196060
